- Test Description: S. cerevisiae RM11-1a growth modifiers, primary screen, strain RM11-1a, OD600, basal, 24 h (AID 1177);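 note: cultures grown under basal conditions with no added stressor; test concentration not given here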
- Applied Conditions: OD600, 24 h, higher = more signal, called active from +8 up or from −8 down
Label True when z-score >= -0.6; otherwise False.

Examples with answers:
>  <Compound>
CC(C)=C1C(=O)C(c2ccccc2)=C2CN3C(=O)N(CCc4ccccc4)C(=O)[C@]3(Cc3ccccc3)[C@H]21

>  <Assigned Label>
True

$$$$
>  <Compound>
C=CCOC(=O)[C@@H]1[C@H]2C(=O)O[C@H](c3ccccc3)[C@H](c3ccccc3)N2[C@H](c2ccc(OCCOC(=O)[C@H]3C[C@H]4C(=O)N[C@@H](CCCCNC(C)=O)C(=O)N4[C@H]3c3ccc(O)cc3)cc2)[C@@]12C(=O)Nc1ccc(I)cc12

>  <Assigned Label>
True

$$$$
>  <Compound>
CC[C@H]1C2=C3C(CC[C@H]4C(OC)OC[C@](C)([C@@H]34)N(C(=O)OC(C)(C)C)C2)C(CO)C1CO (stereo not given in full)

>  <Assigned Label>
False

$$$$

Record CO[C@H]1COC(=O)[C@@H](C)COC(=O)[C@H](Cc2ccccc2)NC(=O)CC=C[C@H]1C ; criterion: z-score no lower than -0.6. Met?
False

Record [N-]=[N+]=Nc1ccccc1C[C@@]1(C(=O)N2CCOCC2)N=C(c2ccc(OCCCO)cc2)O[C@@H]1c1ccccc1N=[N+]=[N-] ; criterion: z-score no lower than -0.6. Met?
True

Record Cc1ccc(S[C@]2(C(=O)O)CC(=O)N(Cc3cc(C(F)(F)F)cc(C(F)(F)F)c3)[C@@H]2c2ccc(CO)cc2I)cc1 ; criterion: z-score no lower than -0.6. Met?
True

---

For each record, write down the corresponding z-score.
- Test Description: basal HepG2 mitochondrial membrane potential changes, profiling panel, cell-based, JC-1 fluorescence, 24 h, 100 nL compound (AID 1167); note: test concentration not given here
- Applied Conditions: higher = more signal
Numbers only.

Use these answered entries as a reference point.
>  <Compound>
C#CCCCON=C1C[C@@H](O)[C@@H](O)[C@@H]2[C@@H]3C(=O)N(Cc4ccc5c(c4)OCO5)C(=O)[C@@H]3CC[C@H]12

>  <z-score>
-0.537

$$$$
>  <Compound>
CC(C)N1CC=CC23O[C@@H]4/C=C\CCCOC(=O)C4[C@H]2C(=O)N(CCCCCO)[C@@H]3C1=O (some centres undefined)

>  <z-score>
0.446

$$$$
>  <Compound>
CC(=O)NCCCC[C@@H]1NC(=O)[C@H]2C[C@@H](C(=O)NCCCCCCN(C)C)[C@@H](c3ccc(O)cc3)N2C1=O

>  <z-score>
-0.755

$$$$

Value sought for every listed compound: z-score.
1. C=CCOC(=O)[C@@H]1[C@H]2C(=O)O[C@H](c3ccccc3)[C@H](c3ccccc3)N2[C@H](c2ccc(OCCOC(=O)[C@H]3C[C@H]4C(=O)N[C@@H](CCCCNC(C)=O)C(=O)N4[C@H]3c3ccc(O)cc3)cc2)[C@@]12C(=O)Nc1ccc(I)cc12
2. COc1cc(CO)cc(I)c1O[C@H]1C=C(C(=O)NCCO)C[C@@H](NCCc2c[nH]c3ccccc23)[C@@H]1O
3. CO[C@H]1COC(=O)[C@H](CCSC)NC(=O)CC=C[C@@H](C)COC(=O)[C@@H](OCc2ccccc2)C=C[C@@H]1C
4. C=CC[C@]1(C(=O)N2CCCCC2)N=C(c2ccc(OCCCO)cc2)O[C@H]1c1ccccc1N=[N+]=[N-]

1. -0.422
2. -1.01
3. 0.842
4. 0.654
